B1: bZIP63 (protoplast two-hybrid fusion) [Arabidopsis thaliana] / bZIP11 (protoplast two-hybrid fusion) [Arabidopsis thaliana] (parent)
chain 1: MEKVFSDEEISGNHHWSVNGMTSLNRSASEWAFNRFIQESSAAADDGESTTACGVSVSSPPNVPVDSEEYRAFLKSKLNLACAAVAMKRGTFIKPQDTSGRSDNGGANESEQASLASSKATPMMSSAITSGSELSGDEEEADGETNMNPTNVKRVKRMLSNRESARRSRRRKQAHLSELETQVSQLRVENSKLMKGLTDVTQTFNDASVENRVLKANIETLRAKVKMAEETVKRLTGFNPMFHNMPQIVSTVSLPSETSNSPDTTSSQVTTPEIISSGNKGKALIGCKMNRTASMRRVESLEHLQKRIRSVGDQ
chain 2: MESSSSGTTSSTIQTSSGSEESLMEQRKRKRMLSNRESARRSRMKKQKLLDDLTAQVNHLKKENTEIVTSVSITTQHYLTVEAENSVLRAQLDELNHRLQSLNDIIEFLDSSNNNNNNNMGMCSNPLVGLECDDFFVNQMNMSYIMNQPLMASSDALMY

- Variants of: B1
- ASSAY: protoplast two-hybrid (P2H) assay
- CONDITION_CONTEXT: with bZIP11 (protoplast two-hybrid fusion) [Arabidopsis thaliana]; + AKIN10 co-transformation; parent: 100; read off a plot
OBSERVATION_TYPE: percent of parent (%)

VARIANT_DESCRIPTION: chain 1 S29A S294A S300A
READOUT_NUMBER: 27
--
VARIANT_DESCRIPTION: chain 1 S300A
READOUT_NUMBER: 100
--
VARIANT_DESCRIPTION: chain 1 S29A
READOUT_NUMBER: 32
--
VARIANT_DESCRIPTION: chain 1 S294A
READOUT_NUMBER: 110
--
VARIANT_DESCRIPTION: chain 1 S294A S300A
READOUT_NUMBER: 110
